Biological target: human Dopamine D1 receptor (Homo sapiens)
Construct: expressed in transfected cells; host or cells: Ltk- cells (mouse fibroblasts), membrane preparation
Sequence (P21728 whole entry): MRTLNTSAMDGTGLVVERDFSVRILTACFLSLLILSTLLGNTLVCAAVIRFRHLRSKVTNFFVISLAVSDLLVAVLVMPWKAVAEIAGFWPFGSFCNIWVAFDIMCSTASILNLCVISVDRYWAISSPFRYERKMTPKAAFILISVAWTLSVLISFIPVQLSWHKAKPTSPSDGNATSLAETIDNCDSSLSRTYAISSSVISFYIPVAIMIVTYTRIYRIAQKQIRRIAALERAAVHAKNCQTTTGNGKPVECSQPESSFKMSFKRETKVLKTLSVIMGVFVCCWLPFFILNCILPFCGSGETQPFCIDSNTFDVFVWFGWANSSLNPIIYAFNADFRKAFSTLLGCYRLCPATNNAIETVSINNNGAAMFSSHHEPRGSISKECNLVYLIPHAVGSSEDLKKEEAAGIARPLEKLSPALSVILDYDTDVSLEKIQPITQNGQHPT
Experiment: radioligand binding competition assay, displacement of [3H]SCH 23390 from D1 receptor (Ltk-cells membranes);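 further: under 5 nM class also requires D2 to D1 selectivity above 500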
Conditions: class combines Ki (D1) and, for A and B, D2:D1 selectivity (Ki D2 / Ki D1); read-out: D1 binding and D2:D1 Selectivity
From the text: Biological Activity: Compounds from this disclosure have been biologically characterized by their ability to displace a known D1-like selective ligand, [3H]SCH 23390 from the human Dopamine D1 receptor, and a known D2-like selective ligand, [3H] […] Affinity values (Ki) of compounds at human dopamine receptors were ascertained using radioligand binding competition assays. […] Bound radioactivity on the dried filters was quantified by liquid scintillation counting. […]
value_type: Ki

N=C(/C=C/c1ccc(Cc2cccnc2)cc1)Nc1ccc(Cl)cc1 [Example 48] ... 10 to 50 nM

Input: Reported Ki for N=C(/C=C/c1ccc(O)c(Cl)c1)Nc1ccc(Cl)cc1 [Example 92] : what is it?
Output: 50 to 10000 nM

Input: Try this molecule too: N=C(/C=C/c1ccc(Cc2ccncc2)cc1)Nc1ccc(Cl)cc1 [Example 35]
Output: 10 to 50 nM

---

target: human Dopamine D1 receptor (Homo sapiens); construct: expressed in transfected cells; host or cells: Ltk- cells (mouse fibroblasts), membrane preparation; assay: radioligand binding competition assay, displacement of [3H]SCH 23390 from D1 receptor (Ltk-cells membranes); conditions: class combines Ki (D1) and, for A and B, D2:D1 selectivity (Ki D2 / Ki D1); read-out: D1 binding and D2:D1 Selectivity;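 further: under 5 nM class also requires D2 to D1 selectivity above 500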
pKi: −log10 of the molar value.
Known pKi of a selection of compounds

// known answers, use as guide
N=C(/C=C/c1ccccc1Br)Nc1ccc(Cl)cc1 ... 5.00 to 7.30
N=C(/C=C/c1ccc(Cc2cccnc2)cc1)Nc1ccc(Cl)c(O)c1 ... 5.00 to 7.30
N=C(/C=C/c1c(Cl)cccc1Cl)Nc1ccc(Cl)cc1 ... 5.00 to 7.30
CN(C)c1ccc(/C=C/C(=N)Nc2ccc(Cl)cc2)cc1 ... 7.30 to 8.00
N=C(/C=C/c1ccc(N2CCN(Cc3ccccc3)CC2)cc1)Nc1ccc(Cl)cc1 ... 7.30 to 8.00

Input: Reported pKi for N=C(/C=C/c1ccc(Cl)cc1Cl)Nc1ccc(Cl)cc1 : what is it?
Output: 7.30 to 8.00

Input: Try this compound too: N=C(/C=C/c1ccc(N2CCN(Cc3cccs3)CC2)cc1Cl)Nc1ccc(Cl)cc1
Output: 7.30 to 8.00

Input: Try this compound too: CN(C)c1ccc(/C=C/C(=N)Nc2ccc(Cl)cc2)c2ccccc12
Output: 5.00 to 7.30

Input: Try this compound too: COc1ccc(/C=C/C(=N)Nc2ccc(C)c([N+](=O)[O-])c2)cc1
Output: 5.00 to 7.30

Input: Try this compound too: N=C(Nc1ccc(Cl)cc1)c1ccc2[nH]ccc2c1
Output: 5.00 to 7.30

Input: Try this compound too: CCN(CC)c1ccc(/C=C/C(=N)Nc2ccc(Cl)cc2)cc1
Output: 7.30 to 8.00

Input: Try this compound too: N=C(/C=C/c1ccc(N2CCN(C3CCCC(C(F)(F)F)C3)CC2)cc1Cl)Nc1ccc(Cl)cc1 (stereo not drawn)
Output: 7.30 to 8.00

Input: Try this compound too: N=C(/C=C/c1ccc(CN2CCCC2)cc1)Nc1ccc(Cl)cc1
Output: 5.00 to 7.30

Input: Try this compound too: COc1ccc(NC(=N)/C=C/c2ccc(Cc3cccnc3)cc2)cc1Cl
Output: 5.00 to 7.30

Input: Try this compound too: COc1ccc2cc(C(=N)Nc3ccc(Cl)cc3)ccc2c1
Output: 5.00 to 7.30
